# experiment: A CellTox Green Cytotoxicity Assay to monitor cytotoxicity in HepG2 cells - 0 hour (AID 1224882); also: nearly all actives have a fitted effect of over 35% in size
# assay-context: CellTox Green fluorescence; series mostly up to 76.8 µM
Calls of active or inactive are those of the source. Calls follow the shape of the dose curve; as a rule, active = well fitted activation curve with a large enough effect in the repeat runs; inconclusive = weak or mixed curves; inactive = flat fitted curve, though single readings scatter.
Thanks in advance; please answer with one of these: t for active, f for inactive

Please indicate how the test categorized Cc1nn(-c2cc(NS(C)(=O)=O)c(Cl)cc2Cl)c(=O)n1C(F)F .
f

Please indicate how the test categorized CC(C)N(C(=O)CCl)c1ccccc1 .
f

Please indicate how the test categorized CCO/N=C(\CC)C1=C(O)CC(c2c(C)cc(C)cc2C)CC1=O (stereo not given) .
f

Please indicate how the test categorized CCNS(=O)(=O)C(F)(F)C(F)(F)C(F)(F)C(F)(F)C(F)(F)C(F)(F)C(F)(F)C(F)(F)F .
f

Please indicate how the test categorized O=C(N[C@@H]1N=C(c2ccccc2F)c2cccc3c2N(CC3)C1=O)c1cc2ccccc2[nH]1 .
t
